Target: ABCB1 (Homo sapiens)
Experiment: Inhibition of ABCB1 in human A2780/ADR cells assessed as reduction in calcein AM efflux at 10 uM pre-incubated for 30 mins before calcein AM addition and measured for 60 mins by microplate reader analysis relative to control
Format: cell-based
Details: probe calcein AM
Would you mind telling me the reported inhibition at 1 h, 10 µM of each entry?

[ask] Requested read-out inhibition at 1 h, 10 µM, target or system ABCB1 (Homo sapiens), entry COc1ccc(C(=O)N2CCc3c([nH]c4ccccc34)C2c2ccc(F)c(F)c2)cc1OC (stereo not given)
[reply] > 25%

[ask] Write down the reported inhibition at 1 h, 10 µM of COc1ccc(C(=O)N2CCc3c([nH]c4ccccc34)C2c2ccc(F)c(F)c2)cc1 (stereo not given) , test system: ABCB1 (Homo sapiens).
[reply] > 25%

[ask] Form field: inhibition at 1 h, 10 µM recorded for COc1cccc(C2NCCc3c2[nH]c2ccccc32)c1 (stereo not given) with ABCB1 (Homo sapiens) (enter value)
[reply] < 25%

[ask] Please provide the recorded inhibition at 1 h, 10 µM for COc1ccc(C(=O)N2CCc3c([nH]c4ccccc34)C2c2cccc(Cl)c2)cc1 (stereo not given) , tested on ABCB1 (Homo sapiens).
[reply] > 25%

[ask] // map O=C(c1ccccc1)N1CCc2c([nH]c3ccccc23)C1c1cccc(Cl)c1 (stereo not given) to recorded inhibition at 1 h, 10 µM (system: ABCB1 (Homo sapiens))
[reply] > 25%

[ask] Missing value: inhibition at 1 h, 10 µM, ABCB1 (Homo sapiens), entry O=C(c1ccccc1)N1CCc2c([nH]c3ccccc23)C1c1ccccc1F (stereo not given) . Fill in?
[reply] > 25%

[ask] Notebook: pull reported inhibition at 1 h, 10 µM for ABCB1 (Homo sapiens), entry COc1cccc(C2c3[nH]c4ccccc4c3CCN2C(=O)c2ccccc2)c1 (stereo not given)
[reply] > 25%

[ask] # returns recorded inhibition at 1 h, 10 µM (system: ABCB1 (Homo sapiens)) for CCn1c2c(c3ccccc31)CCN(C(=O)c1cccc(OC)c1)C2c1ccc(Cl)c(Cl)c1 (stereo not given)
[reply] < 25%

[ask] Look up inhibition at 1 h, 10 µM with ABCB1 (Homo sapiens) for this compound: COc1ccc(C(=O)N2CCc3c([nH]c4ccccc34)C2c2ccccc2)cc1 (stereo not given)
[reply] > 25%

[ask] Give ABCB1 (Homo sapiens) inhibition at 1 h, 10 µM for O=C(c1ccccc1)N1CCc2c([nH]c3ccccc23)C1c1ccc(Cl)c(Cl)c1 (stereo not given)
[reply] < 25%

====

Target: ABCB1 (Homo sapiens, UniProt P08183)
Sequence (P08183 whole entry): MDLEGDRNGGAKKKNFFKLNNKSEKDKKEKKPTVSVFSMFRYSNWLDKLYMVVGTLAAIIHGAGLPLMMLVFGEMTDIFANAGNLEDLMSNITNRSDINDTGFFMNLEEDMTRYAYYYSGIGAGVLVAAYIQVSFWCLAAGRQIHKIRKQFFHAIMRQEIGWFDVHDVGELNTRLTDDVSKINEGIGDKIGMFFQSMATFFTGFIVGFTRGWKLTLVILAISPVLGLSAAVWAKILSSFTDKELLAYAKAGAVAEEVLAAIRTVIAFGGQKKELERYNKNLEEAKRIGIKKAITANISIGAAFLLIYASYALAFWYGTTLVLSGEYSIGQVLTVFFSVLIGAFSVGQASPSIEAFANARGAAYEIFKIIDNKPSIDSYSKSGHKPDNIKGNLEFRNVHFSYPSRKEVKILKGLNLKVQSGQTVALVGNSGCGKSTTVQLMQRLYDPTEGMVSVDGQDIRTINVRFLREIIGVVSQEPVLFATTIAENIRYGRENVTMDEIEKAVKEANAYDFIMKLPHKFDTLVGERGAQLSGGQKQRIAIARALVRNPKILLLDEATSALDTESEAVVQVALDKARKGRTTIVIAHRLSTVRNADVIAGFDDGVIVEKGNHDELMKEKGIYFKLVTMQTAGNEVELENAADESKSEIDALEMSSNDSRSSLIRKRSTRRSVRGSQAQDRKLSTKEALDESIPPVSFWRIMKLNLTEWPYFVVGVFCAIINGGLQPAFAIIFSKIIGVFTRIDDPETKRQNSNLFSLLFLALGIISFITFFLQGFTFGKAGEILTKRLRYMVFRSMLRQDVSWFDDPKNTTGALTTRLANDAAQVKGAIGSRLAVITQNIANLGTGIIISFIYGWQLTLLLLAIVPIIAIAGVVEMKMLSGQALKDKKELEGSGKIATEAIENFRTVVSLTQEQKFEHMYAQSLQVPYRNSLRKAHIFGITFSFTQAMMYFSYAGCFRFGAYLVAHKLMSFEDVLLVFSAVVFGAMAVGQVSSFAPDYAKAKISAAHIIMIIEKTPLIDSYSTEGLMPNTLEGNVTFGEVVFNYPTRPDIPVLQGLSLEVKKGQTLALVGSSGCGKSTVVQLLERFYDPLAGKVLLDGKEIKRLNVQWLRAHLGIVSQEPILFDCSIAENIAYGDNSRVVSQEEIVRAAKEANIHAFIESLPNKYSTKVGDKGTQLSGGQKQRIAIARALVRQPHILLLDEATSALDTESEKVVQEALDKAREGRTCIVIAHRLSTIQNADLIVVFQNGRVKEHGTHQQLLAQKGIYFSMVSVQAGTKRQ
Test: Inhibition of ABCB1 in human A2780/ADR cells assessed as reduction in calcein AM efflux at 10 uM pre-incubated for 30 mins before calcein AM addition and measured for 60 mins by microplate reader analysis relative to control
Type: cell-based
Conditions: probe calcein AM
Hi there, I'd appreciate the recorded inhibition at 1 h, 10 µM for every entry that follows.

[ask] # query: inhibition at 1 h, 10 µM | item c1ccc(CN2CCc3c([nH]c4ccccc34)C2c2ccccc2)cc1 (stereo not given) | system: ABCB1 (Homo sapiens, UniProt P08183)
[reply] < 25%

[ask] Lab note: need inhibition at 1 h, 10 µM for N#Cc1cccc(C2c3[nH]c4ccccc4c3CCN2C(=O)c2ccccc2)c1 (stereo not given) on ABCB1 (Homo sapiens, UniProt P08183), anyone have it?
[reply] > 25%

[ask] Reported inhibition at 1 h, 10 µM for ABCB1 (Homo sapiens, UniProt P08183), given O=C(c1ccccc1)N1CCc2c([nH]c3ccccc23)C1c1ccc(F)cc1 (stereo not given) ?
[reply] > 25%

[ask] Test system ABCB1 (Homo sapiens, UniProt P08183); read-out inhibition at 1 h, 10 µM; what value for O=C(c1ccccc1)N1CCc2c([nH]c3ccccc23)C1c1ccccc1 (stereo not given) ?
[reply] > 25%

[ask] Please tell me: inhibition at 1 h, 10 µM of O=C(c1ccc(Cl)cc1)N1CCc2c([nH]c3ccccc23)C1c1ccc(Cl)c(Cl)c1 (stereo not given) , system ABCB1 (Homo sapiens, UniProt P08183)?
[reply] < 25%

[ask] What inhibition at 1 h, 10 µM appears in the records for this compound with ABCB1 (Homo sapiens, UniProt P08183)? O=C(c1ccccc1)N1CCc2c([nH]c3ccccc23)C1c1ccc(C(F)(F)F)cc1 (stereo not given)
[reply] < 25%

[ask] Given the entry COc1cccc(C(=O)N2CCc3c([nH]c4ccccc34)C2c2ccc(Cl)c(Cl)c2)c1 (stereo not given) , what inhibition at 1 h, 10 µM was observed with ABCB1 (Homo sapiens, UniProt P08183)?
[reply] < 25%

[ask] Lab note: need inhibition at 1 h, 10 µM for CCn1c2c(c3ccccc31)CCN(C(=O)c1ccccc1)C2c1ccccc1 (stereo not given) on ABCB1 (Homo sapiens, UniProt P08183), anyone have it?
[reply] > 25%

[ask] Report inhibition at 1 h, 10 µM for O=C(c1ccccc1)N1CCc2c([nH]c3ccccc23)C1c1ccccc1Cl (stereo not given) tested on ABCB1 (Homo sapiens, UniProt P08183).
[reply] < 25%

[ask] Report inhibition at 1 h, 10 µM for Cc1ccc(C2c3[nH]c4ccccc4c3CCN2C(=O)c2ccccc2)cc1 (stereo not given) tested on ABCB1 (Homo sapiens, UniProt P08183).
[reply] < 25%

====

Target: Broad substrate specificity ATP-binding cassette transporter ABCG2 (Homo sapiens, UniProt Q9UNQ0)
Test: Inhibition of human ABCG2 expressed in MDCK2 cells assessed as reduction in Hoechst 33342 efflux pre-incubated for 30 mins before Hoechst 33342 addition and measured for 120 mins by microplate reader analysis
Format: cell-based
Settings: read-out: IC50
quantity.measured: IC50 (µM)
Return type: number; implicit unit µM.

[ask] Query: IC50; subject: COc1ccc2[nH]c3c(c2c1)CCN(C(=O)c1ccccc1)C3c1ccc(Cl)c(Cl)c1 (stereo not given)
[reply] 0.382

[ask] Tell me the measured IC50 of COc1ccc(C(=O)N2CCc3c([nH]c4ccccc34)C2c2ccc(C(F)(F)F)cc2)cc1 (stereo not given) , please.
[reply] 1.23

[ask] Entry CC(C)CC1c2[nH]c3ccccc3c2CCN1C(=O)c1ccccc1 (stereo not given) : reported IC50 = ?
[reply] 2.33

[ask] Which value of IC50 has been reported for O=C(c1ccccc1)N1CCc2c([nH]c3ccccc23)C1c1ccc(Cl)c(Cl)c1 (stereo not given) in the records?
[reply] 0.328

[ask] Data request, read-out IC50, for COc1ccc(C2c3[nH]c4ccccc4c3CCN2C(=O)c2ccccc2)cc1OC (stereo not given)
[reply] 3.62

[ask] I would be grateful if you could share the reported IC50 for COc1ccc(C(=O)N2CCc3c([nH]c4ccccc34)C2c2ccc(Cl)c(Cl)c2)cc1 (stereo not given) .
[reply] 0.233

[ask] # get_value(readout='IC50', item= O=C(c1ccccc1)N1CCc2c([nH]c3ccccc23)C1c1ccccc1 (stereo not given) )
[reply] 2.78

====

For each of the compounds below, state its pIC50.
Target: Broad substrate specificity ATP-binding cassette transporter ABCG2 (Homo sapiens, UniProt Q9UNQ0)
Sequence (Q9UNQ0 whole entry): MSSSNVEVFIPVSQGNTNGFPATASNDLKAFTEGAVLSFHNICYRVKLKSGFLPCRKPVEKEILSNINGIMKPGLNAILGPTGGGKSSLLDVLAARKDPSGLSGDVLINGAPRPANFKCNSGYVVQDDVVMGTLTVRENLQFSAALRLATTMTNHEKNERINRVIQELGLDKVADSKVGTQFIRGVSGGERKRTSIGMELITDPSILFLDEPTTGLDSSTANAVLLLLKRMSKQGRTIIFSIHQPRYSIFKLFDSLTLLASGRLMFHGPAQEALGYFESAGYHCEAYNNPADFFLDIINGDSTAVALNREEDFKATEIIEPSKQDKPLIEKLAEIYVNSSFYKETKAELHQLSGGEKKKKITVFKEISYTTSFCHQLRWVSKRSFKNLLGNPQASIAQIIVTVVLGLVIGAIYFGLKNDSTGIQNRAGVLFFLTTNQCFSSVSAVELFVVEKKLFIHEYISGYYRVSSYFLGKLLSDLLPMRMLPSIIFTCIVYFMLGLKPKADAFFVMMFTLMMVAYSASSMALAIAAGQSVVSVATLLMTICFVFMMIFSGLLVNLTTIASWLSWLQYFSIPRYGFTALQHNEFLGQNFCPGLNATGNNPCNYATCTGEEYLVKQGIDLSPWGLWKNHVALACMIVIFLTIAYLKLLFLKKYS
Experiment: Inhibition of human ABCG2 expressed in baculovirus infected Sf9 cell membrane assessed as inhibition of vanadate sensitive quercetin-stimulated ATPase activity after 20 mins by colorimetric method
Interpret pIC50 as the negative base-10 log of the concentration measured in mol/L.

[ask] Need pIC50 of COc1ccc2[nH]c3c(c2c1)CCN(C(=O)c1ccccc1)C3c1ccc(Cl)c(Cl)c1 (configuration not stated) , thanks.
[reply] 6.52

[ask] Would you mind telling me what pIC50 value was observed for O=C(c1ccccc1)N1CCc2c([nH]c3ccccc23)C1c1ccc(Br)cc1 (configuration not stated) ?
[reply] 6.06

[ask] Quick check: pIC50 of COc1ccc(C(=O)N2CCc3c([nH]c4ccccc34)C2c2ccc(Cl)c(Cl)c2)cc1 (configuration not stated) ?
[reply] 6.55

[ask] Recorded pIC50 for O=C(c1ccccc1)N1CCc2c([nH]c3ccccc23)C1c1ccc(Cl)cc1 (configuration not stated) , please?
[reply] 6.25

[ask] // returns reported pIC50 for input O=C(c1ccccc1)N1CCc2c([nH]c3ccccc23)C1c1ccc(Cl)c(Cl)c1 (configuration not stated)
[reply] 6.58

[ask] What pIC50 value was documented for this compound, O=C(c1ccccc1)N1CCc2c([nH]c3ccccc23)C1c1ccccc1 (configuration not stated) ?
[reply] 5.69

[ask] Give its pIC50 value. Item: COc1cccc(C(=O)N2CCc3c([nH]c4ccccc34)C2c2ccc(Cl)c(Cl)c2)c1 (configuration not stated)
[reply] 6.58
